- System name: human GPRC5D (human, UniProt Q9NZD1 1-345)
- Sequence (Q9NZD1 whole entry): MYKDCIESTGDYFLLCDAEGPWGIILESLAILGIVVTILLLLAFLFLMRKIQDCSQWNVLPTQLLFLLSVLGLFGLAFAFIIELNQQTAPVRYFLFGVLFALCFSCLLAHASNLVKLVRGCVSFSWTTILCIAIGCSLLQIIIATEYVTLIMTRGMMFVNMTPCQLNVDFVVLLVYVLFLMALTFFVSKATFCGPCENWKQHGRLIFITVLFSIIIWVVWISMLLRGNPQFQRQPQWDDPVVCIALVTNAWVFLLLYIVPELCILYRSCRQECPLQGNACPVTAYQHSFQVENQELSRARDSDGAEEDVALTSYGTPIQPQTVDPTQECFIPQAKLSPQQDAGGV
- Protocol text: cell-based or functional assay
Endpoint: CAR-J2 EC50 (PGLALA-CAR-J activation, L363 target cells) (µg/mL)
Give a bare numeral; the unit µg/mL is implied.

For orientation, consider the following solved cases.
P1AE5760 (antibody, V domains shown) VH: EVQLVESGGGLVQPGGSLRLSCAASGFSFSNYGMAWVRQAPGKGLEWVASISTGGGNTYYADSVKGRFTISRDNAKNTLYLQMNSLRAEDTAVYYCTRHDRGGLYWGQGTMVTVSS VL: DIVMTQSPLSLPVTPGEPASISCRSSKSLLHSNGITYVYWYLQKPGQSPQVLIYRMSNLASGVPDRFSGSGSGTDFTLKISRVEAEDVGVYHCGQLLENPYTFGQGTKLEIK
0.19
P1AE5737 (antibody, V domains shown) VH: QVQLVESGGGVVQPGRSLRLSCAASGFSFSNYGMAWVRQAPGKGLEWVASISTGGGNTYYRDSVKGRFTISRDNSKNTLYLQMNSLRAEDTAVYYCTRHDRGGLYWGQGTMVTVSS VL: DIVMTQSPDSLAVSLGERATINCKSSKSLLHSNGITYVYWYQQKPGQPPKLLIYRMSNLASGVPDRFSGSGSGTDFTLTISSLQAEDVAVYHCGQLLENPYTFGQGTKLEIK
0.00295

So for P1AE5755 (antibody, V domains shown) VH: EVQLVESGGGLVQPGGSLRLSCAASGFSFSNYGMAWVRQAPGKGLEWVASISTGGGNTYYRDSVKGRFTISRDNAKNTLYLQMNSLRAEDTAVYYCTRHDRGGLYWGQGTMVTVSS VL: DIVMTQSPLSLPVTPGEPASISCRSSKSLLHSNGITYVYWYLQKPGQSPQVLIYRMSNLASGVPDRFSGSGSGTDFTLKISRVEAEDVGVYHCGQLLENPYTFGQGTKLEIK , the logged CAR-J2 EC50 (PGLALA-CAR-J activation, L363 target cells) turned out to be 0.152

This collection of values is drawn from patent US20210054094A1.
